test_summary: Surface tension of aqueous solutions of the fluorinated derivatives
Assay type: physicochemical
test_parameters: solution in water, 20°C, concentration 1 g/l
// Tension superficielle lookup, one value per entry

| compound | Tension superficielle |
| --- | --- |
| C[N+](C)(C)C(CCC(F)(F)C(F)(F)C(F)(F)C(F)(F)C(F)(F)C(F)(F)C(F)(F)C(F)(F)F)C(=O)[O-] (centres unmarked) | 19,1 mN.m^-1 |
| C[N+](C)(C)C(CCC(F)(F)C(F)(F)C(F)(F)C(F)(F)C(F)(F)C(F)(F)F)C(=O)[O-] (centres unmarked) | 20,0 mN.m^-1 |
| C[N+](C)(C)C(CCC(F)(F)C(F)(F)C(F)(F)C(F)(F)F)C(=O)[O-] (centres unmarked) | 49,3 mN.m^-1 |
| O=C(O)CNC(=O)CCC(F)(F)C(F)(F)C(F)(F)C(F)(F)C(F)(F)C(F)(F)C(F)(F)C(F)(F)F | 21,6 mN.m^-1 |
| C[C@H](CCC(=O)NC(CCC(F)(F)C(F)(F)C(F)(F)C(F)(F)C(F)(F)C(F)(F)F)C(=O)O)[C@H]1CC[C@H]2[C@@H]3[C@H](O)C[C@@H]4C[C@H](O)CC[C@]4(C)[C@H]3C[C@H](O)[C@]12C (some centres unmarked) | 28,5 mN.m^-1 |

---

test_summary: Interfacial tension between aqueous solutions and perfluorodecalin
Assay type: physicochemical
test_parameters: solution in water vs perfluorodécaline, 20°C, concentration 0,1 g/l

| compound | Tension interfaciale/ F-décaline |
| --- | --- |
| C[N+](C)(C)C(CCC(F)(F)C(F)(F)C(F)(F)C(F)(F)C(F)(F)C(F)(F)C(F)(F)C(F)(F)F)C(=O)[O-] (centres unmarked) | 3,4 mN.m^-1 |
| O=C(O)CNC(=O)CCC(F)(F)C(F)(F)C(F)(F)C(F)(F)C(F)(F)C(F)(F)C(F)(F)C(F)(F)F | 25,2 mN.m^-1 |
| C[N+](C)(C)C(CCC(F)(F)C(F)(F)C(F)(F)C(F)(F)F)C(=O)[O-] (centres unmarked) | 48,0 mN.m^-1 |
| C[N+](C)(C)C(CCC(F)(F)C(F)(F)C(F)(F)C(F)(F)C(F)(F)C(F)(F)F)C(=O)[O-] (centres unmarked) | 22,4 mN.m^-1 |
| C[N+](C)(C)C(CCCCNC(=O)CCC(F)(F)C(F)(F)C(F)(F)C(F)(F)C(F)(F)C(F)(F)C(F)(F)C(F)(F)F)C(=O)[O-] (centres unmarked) | 3,6 mN.m^-1 |

---

test_summary: Surface tension of aqueous solutions of the fluorinated derivatives
Type: physicochemical
test_parameters: solution in water, 20°C, concentration 0,1 g/l

| molecule | Tension superficielle |
| --- | --- |
| C[N+](C)(C)C(CCC(F)(F)C(F)(F)C(F)(F)C(F)(F)F)C(=O)[O-] (centres unmarked) [(F-butyl-2')éthyl bétaïne de l'Ex. 4, F-(butyl-2')éthyl bétaïne] | 68,4 mN.m^-1 |
| O=C(O)CNC(=O)CCC(F)(F)C(F)(F)C(F)(F)C(F)(F)C(F)(F)C(F)(F)C(F)(F)C(F)(F)F | 38,8 mN.m^-1 |
| C[N+](C)(C)C(CCC(F)(F)C(F)(F)C(F)(F)C(F)(F)C(F)(F)C(F)(F)F)C(=O)[O-] (centres unmarked) [(F-hexyl-2')éthyl bétaïne de l'Ex. 5, (F-hexyl-2')éthyl bétaïne] | 39,3 mN.m^-1 |
| C[N+](C)(C)C(CCC(F)(F)C(F)(F)C(F)(F)C(F)(F)C(F)(F)C(F)(F)C(F)(F)C(F)(F)F)C(=O)[O-] (centres unmarked) [(F-octyl-2')éthyl bétaïne de l'Ex. 6, (F-octyl-2')éthyl bétaïne] | 19,9 mN.m^-1 |
| C[N+](C)(C)C(CCCCNC(=O)CCC(F)(F)C(F)(F)C(F)(F)C(F)(F)C(F)(F)C(F)(F)C(F)(F)C(F)(F)F)C(=O)[O-] (centres unmarked) | 19,7 mN.m^-1 |
